test system: Plasmodium falciparum; test: Resistance index, ratio of IC50 for antimalarial activity against Plasmodium falciparum 3D7 to IC50 for antimalarial activity against Plasmodium falciparum W2; type: functional
So basically: Ratio IC50 at 0.8 or higher? That is t. Lower than 0.8? That is f.

{"columns": ["COMPOUND", "CAT"],
 "data": [
  ["COc1cccc(C(c2ccc(C(F)(F)F)cc2)N2CCN(c3cnccn3)CC2)c1O (configuration not stated)", "f"],
  ["COc1cccc(C(c2ccc(F)c(F)c2)N2CCN(c3cnccn3)CC2)c1O (configuration not stated)", "t"],
  ["COc1cccc(C(c2ccc(OC(F)(F)F)cc2)N2CCN(c3cnccn3)CC2)c1O (configuration not stated)", "t"],
  ["Oc1ccccc1C(c1ccc(OC(F)(F)F)cc1)N1CCN(c2cnccn2)CC1 (configuration not stated)", "t"],
  ["Oc1ccccc1C(c1ccc(Cl)c(Cl)c1)N1CCN(c2cnccn2)CC1 (configuration not stated)", "f"]
]}

Q: Entry COc1ccc(C(c2ccccc2O)N2CCN(c3cnccn3)CC2)cc1 (configuration not stated) : is its Ratio IC50 no less than 0.8?
A: t

Q: Entry Oc1ccccc1C(c1ccc(C(F)(F)F)cc1)N1CCN(c2cnccn2)CC1 (configuration not stated) : is its Ratio IC50 no less than 0.8?
A: f

###

Below, each entry is listed with its recorded IC50.
tested on: Plasmodium falciparum; test: Antimalarial activity against Plasmodium falciparum W2 assessed as reduction in parasite growth incubated for 48 to 50 hrs by microplate reader analysis; format: functional, organism-based
Your answer is read as µM, so omit the unit and give the number.

Q: Given COc1ccc(C(c2ccccc2O)N2CCN(c3cnccn3)CC2)cc1 (configuration not stated) , state its recorded IC50.
A: 2.14

###

Sequence of the target: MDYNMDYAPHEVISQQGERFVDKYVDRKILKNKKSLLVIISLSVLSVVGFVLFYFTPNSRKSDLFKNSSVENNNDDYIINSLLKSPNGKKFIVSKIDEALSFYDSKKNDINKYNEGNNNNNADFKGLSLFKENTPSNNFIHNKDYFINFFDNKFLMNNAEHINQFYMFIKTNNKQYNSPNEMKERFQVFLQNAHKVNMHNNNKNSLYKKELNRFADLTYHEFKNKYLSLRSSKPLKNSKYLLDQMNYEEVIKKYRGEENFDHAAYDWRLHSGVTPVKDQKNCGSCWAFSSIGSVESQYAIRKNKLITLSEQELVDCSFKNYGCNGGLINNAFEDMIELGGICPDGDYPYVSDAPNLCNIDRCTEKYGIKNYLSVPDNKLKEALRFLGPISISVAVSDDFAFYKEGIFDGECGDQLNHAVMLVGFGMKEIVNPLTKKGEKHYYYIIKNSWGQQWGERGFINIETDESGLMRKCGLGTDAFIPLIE
Below, each entry is listed with its recorded pIC50.
For clarity, pIC50 is expressed as the negative log10 of concentration in mol/L.

// worked examples, pIC50 included
{"columns": ["MOLECULE", "pIC50"],
 "data": [
  ["Oc1ccccc1C(c1ccc(C(F)(F)F)cc1)N1CCN(c2cnccn2)CC1 (configuration not stated)", 5.07],
  ["COc1cccc(C(c2ccc(OC(F)(F)F)cc2)N2CCN(c3cnccn3)CC2)c1O (configuration not stated)", 4.94],
  ["Oc1ccccc1C(c1ccc(Cl)c(Cl)c1)N1CCN(c2cnccn2)CC1 (configuration not stated)", 5.18],
  ["Oc1ccccc1C(c1ccc(OC(F)(F)F)cc1)N1CCN(c2cnccn2)CC1 (configuration not stated)", 5.23],
  ["COc1cccc(C(c2ccc(F)c(F)c2)N2CCN(c3cnccn3)CC2)c1O (configuration not stated)", 4.61],
  ["COc1cccc(C(c2ccc(C(F)(F)F)cc2)N2CCN(c3cnccn3)CC2)c1O (configuration not stated)", 5.21]
]}

Q: Given COc1ccc(C(c2ccccc2O)N2CCN(c3cnccn3)CC2)cc1 (configuration not stated) , state its recorded pIC50.
A: 4.51
